Molecular target: T1, Cynomolgus CD3 epsilon Protein, His Tag (Acrobiosystems, Cat #CDE-05226) (cynomolgus (Macaca fascicularis), UniProt Q95LI5 22-117)
T1 construct: also called monkey CD3e; not shown: His tag
T1 sequence: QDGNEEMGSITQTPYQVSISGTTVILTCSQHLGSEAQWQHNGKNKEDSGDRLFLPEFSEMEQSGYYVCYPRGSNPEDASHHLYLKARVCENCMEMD
Experiment: SPR (Biacore), cynomolgus CD3e His tag
We'd kindly ask you to apply these Kd classes: low bin = under 5 nM, mid bin = from 5 nM up to 8 nM, high bin = 8 nM and over

// below: answered binders
binder	classification
1B1-H2K2-IgG1-LALA (antibody, V domains shown, Humanized; human IgG1 with LALA mutations; also called H2K2 (humanized 1B1)) VH: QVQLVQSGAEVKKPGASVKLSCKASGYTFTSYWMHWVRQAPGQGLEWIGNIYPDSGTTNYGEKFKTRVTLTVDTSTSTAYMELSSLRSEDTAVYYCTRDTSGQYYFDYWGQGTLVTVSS VL: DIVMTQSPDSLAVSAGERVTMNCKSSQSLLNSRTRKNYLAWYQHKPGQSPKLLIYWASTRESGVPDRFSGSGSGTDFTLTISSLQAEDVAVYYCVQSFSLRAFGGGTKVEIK	mid bin
10A4-H1K1-IgG1-LALA (antibody, V domains shown, Humanized; human IgG1 with LALA mutations; also called H1K1 (humanized 10A4)) VH: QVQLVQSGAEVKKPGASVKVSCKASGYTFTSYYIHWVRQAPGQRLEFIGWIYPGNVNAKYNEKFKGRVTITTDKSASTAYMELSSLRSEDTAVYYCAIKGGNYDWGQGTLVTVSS VL: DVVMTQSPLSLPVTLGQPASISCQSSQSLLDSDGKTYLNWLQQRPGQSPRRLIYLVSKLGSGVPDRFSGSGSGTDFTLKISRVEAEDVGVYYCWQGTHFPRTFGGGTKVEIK	high bin

Assign a category based on measured Kd for C3E-30-1B1-mHvKv-IgG1-LALA (antibody, V domains shown, Chimeric) VH: QVQLQQPGSELVRPGASVKLSCKASGYTFTSYWMHWVKQRHGQGLEWIGNIYPDSGTTNYGEKFKTKGTLTVDTSSSTAYMHLSSLTSEDSAVYYCTRDTSGQYYFDYWGQGTTLTVSS VL: DIVMSQSPSSLAVSAGEKVTMSCKSSQSLLNSRTRKNYLAWYQHKPGQSPKLLIYWASTRESGVPDRFTGSGSGTDFTLTISSVQAEDLAVYYCVQSFSLRAFGGGTKLEIK and give only the class name.
low bin

Assign a category based on measured Kd for 1B1-H1K3-IgG1-LALA (antibody, V domains shown, Humanized; human IgG1 with LALA mutations; also called H1K3 (humanized 1B1)) VH: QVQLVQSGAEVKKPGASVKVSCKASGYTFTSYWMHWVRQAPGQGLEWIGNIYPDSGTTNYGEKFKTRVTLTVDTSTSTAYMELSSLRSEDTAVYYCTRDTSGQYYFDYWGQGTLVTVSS VL: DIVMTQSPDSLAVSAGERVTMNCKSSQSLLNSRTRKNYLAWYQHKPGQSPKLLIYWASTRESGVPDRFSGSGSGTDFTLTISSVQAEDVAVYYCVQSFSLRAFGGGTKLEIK and give only the class name.
low bin

Assign a category based on measured Kd for 10A4-H2K1-IgG1-LALA (antibody, V domains shown, Humanized; human IgG1 with LALA mutations; also called H2K1 (humanized 10A4)) VH: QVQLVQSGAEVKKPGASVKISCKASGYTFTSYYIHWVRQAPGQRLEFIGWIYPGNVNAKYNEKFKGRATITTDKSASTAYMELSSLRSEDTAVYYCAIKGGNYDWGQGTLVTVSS VL: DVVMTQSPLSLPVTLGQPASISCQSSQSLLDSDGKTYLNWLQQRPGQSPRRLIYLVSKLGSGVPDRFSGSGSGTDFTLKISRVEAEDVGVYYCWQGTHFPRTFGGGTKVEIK and give only the class name.
low bin

Assign a category based on measured Kd for 1B1-H2K1-IgG1-LALA (antibody, V domains shown, Humanized; human IgG1 with LALA mutations; also called H2K1 (humanized 1B1)) VH: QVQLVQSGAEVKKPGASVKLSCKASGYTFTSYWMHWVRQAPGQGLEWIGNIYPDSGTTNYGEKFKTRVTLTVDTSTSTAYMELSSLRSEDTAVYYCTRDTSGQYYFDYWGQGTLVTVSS VL: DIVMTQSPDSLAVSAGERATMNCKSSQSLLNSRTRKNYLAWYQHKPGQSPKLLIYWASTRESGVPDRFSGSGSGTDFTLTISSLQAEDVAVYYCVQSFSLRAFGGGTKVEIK and give only the class name.
mid bin

Assign a category based on measured Kd for 1B1-H1K2-IgG1-LALA (antibody, V domains shown, Humanized; human IgG1 with LALA mutations; also called H1K2 (humanized 1B1)) VH: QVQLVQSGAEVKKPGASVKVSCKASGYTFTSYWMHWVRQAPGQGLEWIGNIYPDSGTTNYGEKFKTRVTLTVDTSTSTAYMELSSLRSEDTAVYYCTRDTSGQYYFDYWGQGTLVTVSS VL: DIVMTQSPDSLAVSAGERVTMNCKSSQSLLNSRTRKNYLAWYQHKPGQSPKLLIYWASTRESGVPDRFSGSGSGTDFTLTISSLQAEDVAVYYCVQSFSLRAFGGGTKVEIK and give only the class name.
mid bin

Assign a category based on measured Kd for 1B1-H2K3-IgG1-LALA (antibody, V domains shown, Humanized; human IgG1 with LALA mutations; also called H2K3 (humanized 1B1)) VH: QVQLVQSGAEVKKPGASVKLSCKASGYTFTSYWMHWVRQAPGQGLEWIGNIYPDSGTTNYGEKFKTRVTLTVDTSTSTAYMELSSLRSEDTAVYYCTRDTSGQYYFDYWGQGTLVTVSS VL: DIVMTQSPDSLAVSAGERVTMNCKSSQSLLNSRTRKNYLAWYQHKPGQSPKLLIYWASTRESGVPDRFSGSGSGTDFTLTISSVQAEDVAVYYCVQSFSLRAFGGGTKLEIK and give only the class name.
mid bin

Assign a category based on measured Kd for 1B1-H1K1-IgG1-LALA (antibody, V domains shown, Humanized; human IgG1 with LALA mutations; also called H1K1 (humanized 1B1)) VH: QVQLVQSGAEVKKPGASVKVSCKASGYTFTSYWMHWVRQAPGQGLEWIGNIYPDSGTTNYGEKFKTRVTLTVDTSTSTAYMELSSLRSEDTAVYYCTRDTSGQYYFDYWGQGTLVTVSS VL: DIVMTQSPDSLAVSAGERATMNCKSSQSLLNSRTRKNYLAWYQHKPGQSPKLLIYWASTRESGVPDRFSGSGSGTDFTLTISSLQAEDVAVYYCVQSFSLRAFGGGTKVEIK and give only the class name.
high bin

Assign a category based on measured Kd for 10A4-H1K2-IgG1-LALA (antibody, V domains shown, Humanized; human IgG1 with LALA mutations; also called H1K2 (humanized 10A4)) VH: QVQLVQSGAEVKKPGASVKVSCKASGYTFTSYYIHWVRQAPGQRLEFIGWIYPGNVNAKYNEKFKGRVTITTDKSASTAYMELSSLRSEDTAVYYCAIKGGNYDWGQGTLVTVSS VL: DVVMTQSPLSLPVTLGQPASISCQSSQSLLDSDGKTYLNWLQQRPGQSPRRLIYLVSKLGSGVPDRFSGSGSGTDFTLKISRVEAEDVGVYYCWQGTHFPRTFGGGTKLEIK and give only the class name.
mid bin
